pIC50: −log10 of the molar value.
// compounds with reported pIC50 on DGKα (Homo sapiens, UniProt P23743), multi-publication
READOUT LABEL: pIC50

| COMPOUND | READOUT LABEL | REPORTED MEASUREMENT |
| --- | --- | --- |
| CC(C)(C)c1nnc(-c2ccc3c(c2)N(Cc2ccc(-n4cnc(C(F)(F)F)c4)cc2)C(=O)[C@@H](N)CS3(=O)=O)o1 | pIC50 | 4.43 |

a = CC(c1cc2c(cc1F)OCC(C)(C)O2)N1C[C@H](C)N(c2nc(=O)n(C)c3c2nc(CC#N)n3C)C[C@H]1C (some centres unmarked)
b = CC(c1ccccc1)N1C[C@H](C)N(c2cc(=O)n(C)c3cn(CC#N)nc23)C[C@H]1C (some centres unmarked)
Smaller pIC50 value? Options are a and b Reply with the label of the item you choose.
a
